# measured.target: T1, human CD4 on human PBMCs (human, UniProt P01730 26-458)
# T1 construct: whole, on cells; the CD4-positive gate was set with the control antibodies OKT4 and RPA-T4; also called hCD4
# assay: FACS, clonal hybridoma supernatant on PBMCs
reported.metric: gMFI of CD4+ (gMFI)
The answer is to be given in gMFI; state only the numeric part.

binder: 75110_03I08A (antibody, V domains shown, Tested as clonal hybridoma supernatant of an AlivaMab Mouse Kappa antibody (human variable regions, kappa; detected with anti-mouse Fc)) VH: QVQLQESGPGLVKPSETLSLTCTVSGGSISSYYWSWIRQPPGKGLEWIGYIYYSGSTNYNPSLKSRVTISVDTSKNQFSLKLSSVTAADTAVYYCAREGEQWFYGLDVWGQGTTVTVSS VL: EIVLTQSPGTLSLSPGERATLSCRASQSVSSTYLAWYQQKPGQAPRLLIYGSSSRATGIPDRFSGSGSGTDFTLTISRLEPEDFAVYYCQQYGNSFPITFGQGTRLEIK
gMFI of CD4+ (gMFI): 26100

Next:
Bench note: what gMFI of CD4+ did 75110_04F22A (antibody, V domains shown, Tested as clonal hybridoma supernatant of an AlivaMab Mouse Kappa antibody (human variable regions, kappa; detected with anti-mouse Fc)) VH: EVQLVESGGGLVQPGGSLRLSCAASGFTFSSYDIHWVRQATGKGLEWVSTIGTAGDTYYPGSVKGRFTISRENAKNSLYLQMNSLRAGDTAVYYCARGGYYYYGMDVWGQGTTVTVSS VL: EIVLTQSPGTLSLSPGERATLSCRASQSVYSSYLAWYQQKPGQAPRLLIYGASSRATGIPDRFSGSGSGTDFTLTISRLEPEDFAVYYCQQFGTSPFTFGPGTKVDIK show?
216000
